B1: TRAF3IP2 (parent)
chain: FMEKRNQWLVSQLSAASPDTGHDS

Variants of: B1
Assay: protein stability index of a GFP-peptide fusion (GPS, HEK-293T) (PSI 1-6); higher = more stable;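 note: lentivirally expressed fusions sorted by FACS into six bins by GFP to DsRed ratio, PSI derived from sequencing read proportions per bin multiplied by bin number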
Conditions: c terminus: a fixed tail appended
The variants listed here are annotated with their protein stability index.
Number only, please.

* FMEKRNQWLVSQLSAASPDTGHQS | 2.44

Prompt: Specify measured protein stability index for FWEKRNQWLVSQLSAASPDTGHDS .
Completion: 3.41

Prompt: Specify measured protein stability index for FMEKRNQWLVSQLSAASPDSGHDS .
Completion: 3.24

Prompt: Specify measured protein stability index for FMEKRNQWLVSQLSAHSPDTGHDS .
Completion: 2.47
